target: T1, Ala mutant of TA0096, SEQ ID NO: 31; assay: ELISA, coated peptide
T1 peptide: EENMADQWMQDEMEIGY
Recorded measurements of OD 490/630 nm, one per entry
Number only, please.

// solved cases for OD 490/630 nm follow
binder	OD 490/630 nm
H7 (antibody, V domains shown, Chicken variable regions in a mouse chimeric antibody (IgG1); also called anti-PAD4 antibody H7) VH: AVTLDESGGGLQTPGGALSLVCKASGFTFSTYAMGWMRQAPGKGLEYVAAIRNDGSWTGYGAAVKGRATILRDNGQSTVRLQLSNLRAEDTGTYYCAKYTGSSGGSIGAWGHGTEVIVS VL: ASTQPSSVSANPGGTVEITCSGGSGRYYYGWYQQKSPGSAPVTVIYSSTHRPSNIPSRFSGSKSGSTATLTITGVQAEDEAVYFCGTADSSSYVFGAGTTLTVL	0.462
G9 (antibody, V domains shown, Chicken variable regions in a mouse chimeric antibody (IgG1); also called anti-PAD4 antibody G9) VH: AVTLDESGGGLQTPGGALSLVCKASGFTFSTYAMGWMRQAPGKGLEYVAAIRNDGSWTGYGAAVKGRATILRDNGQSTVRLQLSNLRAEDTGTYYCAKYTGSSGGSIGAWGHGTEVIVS VL: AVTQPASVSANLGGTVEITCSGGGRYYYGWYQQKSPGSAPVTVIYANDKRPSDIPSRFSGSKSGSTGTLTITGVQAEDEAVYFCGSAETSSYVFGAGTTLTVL	1.48

Ask | Name the reported OD 490/630 nm value associated with the binder G8 (antibody, V domains shown, Chicken variable regions in a mouse chimeric antibody (IgG1); also called anti-PAD4 antibody G8) VH: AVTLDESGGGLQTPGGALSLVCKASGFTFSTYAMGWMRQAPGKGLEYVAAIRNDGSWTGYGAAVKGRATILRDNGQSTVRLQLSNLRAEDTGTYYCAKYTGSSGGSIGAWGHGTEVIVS VL: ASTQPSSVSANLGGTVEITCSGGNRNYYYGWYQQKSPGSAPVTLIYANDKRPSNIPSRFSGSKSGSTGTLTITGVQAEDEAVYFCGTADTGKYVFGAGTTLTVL
Reply | 1.85
